- measurement.target: HLA B*0801 (Homo sapiens, UniProt P01889, A93T/A95T/D138N/E176V/E187T/K202T/Q94N/R180D/S35A/V36M/Y33D/Y91F)
- assay.overview: biochemical
Where a SMILES comes first, the peptide text is derived from it.
For each of the compounds below, state its pIC50.
pIC50 here: minus log base 10 of the concentration, concentration in moles per litre.

Q: Field request: pIC50 | item: CC[C@H](C)[C@H](NC(=O)[C@H](Cc1ccccc1)NC(=O)[C@H](CCSC)NC(=O)[C@H](Cc1ccccc1)NC(=O)[C@H](CCCCN)NC(=O)[C@H](CC(N)=O)NC(=O)[C@H](CCCNC(=N)N)NC(=O)[C@@H](NC(=O)[C@@H](N)CCCNC(=N)N)[C@@H](C)CC)C(=O)O [3102.0998] (H-RIRNKFMFI-OH)
Result: 8.80

Q: Also CSCC[C@H](NC(=O)[C@H](CS)NC(=O)[C@H](CCCNC(=N)N)NC(=O)[C@H](Cc1ccc(O)cc1)NC(=O)[C@H](CCCCN)NC(=O)[C@H](CCCCN)NC(=O)[C@@H](N)CC(N)=O)C(=O)N[C@@H](C)C(=O)N[C@@H](CC(C)C)C(=O)O [3102.0619] (H-NKKYRCMAL-OH) ?
Result: 8.72

Q: Also CC[C@H](C)[C@H](NC(=O)[C@H](C)NC(=O)[C@H](CO)NC(=O)[C@H](Cc1ccccc1)NC(=O)[C@H](CCCCN)NC(=O)[C@H](CCCCN)NC(=O)[C@H](CO)NC(=O)[C@@H](NC(=O)[C@@H](N)CC(N)=O)[C@@H](C)CC)C(=O)O [3102.0717] (H-NISKKFSAI-OH) ?
Result: 8.55
